Data provenance: paper PMC6021390

Reported values of Demethylated product: amount produced per NADH consumed for individual entries
Target: GcoAB (Amycolatopsis sp., UniProt P0DPQ7)
Sequence (P0DPQ7 1-407): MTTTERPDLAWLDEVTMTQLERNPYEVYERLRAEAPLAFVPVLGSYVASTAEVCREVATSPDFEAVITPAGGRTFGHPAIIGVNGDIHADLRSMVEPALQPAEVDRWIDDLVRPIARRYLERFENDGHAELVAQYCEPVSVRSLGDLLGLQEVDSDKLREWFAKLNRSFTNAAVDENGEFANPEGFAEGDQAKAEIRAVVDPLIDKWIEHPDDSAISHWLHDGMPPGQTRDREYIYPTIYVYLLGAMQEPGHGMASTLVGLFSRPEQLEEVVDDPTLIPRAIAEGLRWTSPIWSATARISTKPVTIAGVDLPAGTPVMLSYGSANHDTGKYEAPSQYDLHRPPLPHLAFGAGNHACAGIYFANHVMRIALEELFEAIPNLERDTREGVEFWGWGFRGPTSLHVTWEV
Sequence (P0DPQ8 1-334 partner): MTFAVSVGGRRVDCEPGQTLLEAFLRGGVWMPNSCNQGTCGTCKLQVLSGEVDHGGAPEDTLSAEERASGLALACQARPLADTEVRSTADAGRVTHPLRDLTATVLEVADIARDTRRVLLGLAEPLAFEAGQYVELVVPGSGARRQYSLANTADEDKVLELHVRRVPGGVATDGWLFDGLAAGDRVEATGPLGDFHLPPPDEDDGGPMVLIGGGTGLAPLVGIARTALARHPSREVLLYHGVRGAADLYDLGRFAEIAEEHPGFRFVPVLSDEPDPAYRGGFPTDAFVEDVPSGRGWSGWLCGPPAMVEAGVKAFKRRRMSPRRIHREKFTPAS
Test: HPLC quantification of demethylated aromatic product versus NADH consumed
Format: biochemical, Amycolatopsis sp. ATCC 39116
Set-up: GST (N, cleaved yes); made in house; host or cells: E. coli Rosetta 2 (DE3)
Conditions: saturating substrate, 300 μM NADH, 0.2 μM GcoAB
# respond with the number and nothing more

Below, each entry is followed by its recorded Demethylated product: amount produced per NADH consumed result.
INSERT INTO assay_data (structure_notation, result_value) VALUES
  ('COc1cc(C=O)ccc1O', 0.20),
  ('COc1cccc(O)c1O', 0.97),
  ('CCOc1ccccc1O', 1.4),
  ('COc1cccc(OC)c1O', 0.21),
  ('COc1ccccc1', 0.62),
  ('COc1ccccc1O', 1.2);

Then there is this compound:
Query: Checklist item: Demethylated product: amount produced per NADH consumed tested on GcoAB (Amycolatopsis sp., UniProt P0DPQ7), entry `COc1ccccc1C` , value?
Result: 0.20

###

Target: GcoAB (Amycolatopsis sp.)
Assay: Aldehyde product determination (tryptophan assay for formaldehyde, dehydrogenase assay for acetaldehyde) versus NADH consumed
Type: biochemical, Amycolatopsis sp. ATCC 39116
Design: GST (N, cleaved yes); made in house; host or cells: E. coli Rosetta 2 (DE3)
Settings: formaldehyde (acetaldehyde for guaethol); saturating substrate, 300 μM NADH, 0.2 μM GcoAB
Outcome label depends on Aldehyde produced per NADH consumed relative to 1: at/above gives Fulfilled, below gives Not fulfilled.

Query: Determine whether measured Aldehyde produced per NADH consumed meets or exceeds 1 for `COc1ccccc1O`
Result: Fulfilled

Query: And the next one, `COc1ccccc1` ?
Result: Fulfilled

Query: And the next one, `COc1cccc(O)c1O` ?
Result: Not fulfilled
